Source of measurements: PubChem BioAssay (NCI)

System: UACC-257 melanoma
assayOverview: NCI tumour cell line growth inhibition, 48 h
outcomeMeasure: TGI

Param item = `CCn1c(-c2nonc2N)nc2c(C#CC(C)(C)O)nc(CN3CCCC3)cc21` ; retrieve measured TGI. > 25 µM

Would you kindly repeat that for `CC(C)(C)C1=Nc2c(Br)cc(C(C)(C)C)cc2C(C(F)(F)F)(C(F)(F)F)O1` ? > 100 µM

Would you kindly repeat that for `C=C1c2nc3ccccc3n2C=C(c2ccc(OC)cc2)N1c1ccccc1` ? > 100 µM

Would you kindly repeat that for O=C1C=CC=C[C@@H]2C(C3OCCO3)CC[C@H]12.[C-]#[O+].[C-]#[O+].[C-]#[O+].[Fe] (some centres not stated) ? > 100 µM

Would you kindly repeat that for `COc1ccc2oc(=N)c(C(N)=O)cc2c1` ? > 100 µM

Would you kindly repeat that for `CC(=O)c1c2c(cc3c1CC1(Cc4cc5c(cc4C1)CCCC5)C3)CCCC2` ? 55.7 µM

Would you kindly repeat that for CN1c2ccc(O)c(O)c2-c2cc(O)cc3c2C1CCC3 (configuration not stated) ? 42.2 µM

Would you kindly repeat that for COc1ccc2c(c1)OCCCN(C)OC2c1ccccc1 (configuration not stated) ? > 100 µM

Would you kindly repeat that for `CN(C)c1nc(N)nc(CCl)n1` ? > 100 µM

Would you kindly repeat that for `O=C1C(N2CCOCC2)=C(Cl)C(=O)c2ncccc21` ? 3.52 µM

Would you kindly repeat that for `Cc1ccc(NC(=O)/C=C/c2ccccc2)c(C)c1` ? > 100 µM

Would you kindly repeat that for Cc1cc(S(=O)(=O)NC2=NCC(C)NN2)c(S)cc1Cl (configuration not stated) ? > 100 µM

Would you kindly repeat that for `Cc1n[nH]c(=O)n1/N=C/c1ccc([N+](=O)[O-])cc1` ? > 100 µM

Would you kindly repeat that for `CCCCCCCCCCCCCCCCCCOP1(=O)OCCO1` ? > 100 µM

Would you kindly repeat that for `Cc1cc2c(c3c1c1ccccc1n3C)C(=O)c1ccccc1C2=O` ? > 100 µM

Would you kindly repeat that for COc1ccc(-c2c(C#N)c(=O)nc(SC)n2C2OCC(OC(C)=O)C(OC(C)=O)C2OC(C)=O)cc1 (configuration not stated) ? > 100 µM

Would you kindly repeat that for `COc1ccc2c(C)cc(C)nc2n1` ? > 100 µM

Would you kindly repeat that for `O=C(NC/C(Cl)=C/Cl)Nc1c2ccccc2nc2ccccc12` ? > 100 µM

Would you kindly repeat that for `CCCc1cn2c(/C=N/N=C(N)N)c(-c3c(OC)ccc(OC)c3[N+](=O)[O-])nc2s1` ? 28.4 µM

Would you kindly repeat that for `COc1cc2c(/C=C3\C(=O)N(C)c4ccc(O)cc43)c[nH]c2cc1C` ? 7.01 µM

Would you kindly repeat that for `COc1cccc2c1C(=O)c1c(O)c3c(c(O)c1C2=O)C[C@@](O)(C(C)=O)C[C@@H]3O[C@H]1C[C@H](N)[C@H](O)[C@H](C)O1` ? 0.426 µM

Would you kindly repeat that for `COc1ccc(-c2nc(N)n(C)c2SSc2c(-c3ccc(OC)cc3)nc(N)n2C)cc1` ? 14.5 µM
